Entry source: patent US4950650A

- tgt: AVP (Homo sapiens)
- test: Solid matrix binding of 3H-AVP to immobilized AVP-binding peptide
- condition_label: 3H-AVP binding to peptide coupled to a solid matrix, room temperature 1 hr; read-out: apparent KD
pKd: −log10 of the molar value. Where no end group is shown, it is not given here.
measure: pKd

For the sequence TMKVLTGSP [AVP-binding peptide] , give its measured pKd value. ~7.30
